# key: entry, value: IC50
- System: MDA-MB-231
- EXPERIMENT DESCRIPTION: Cytotoxicity against human MDA-MB-231 cells assessed as inhibition of cell growth by MTT assay
- Type: functional, cell-based
Answer format: numeric, µM implied, no suffix.

COC(=O)c1cc2cc(NC(=O)c3ccc(C(C)(C)C)cc3)ccc2s1 : 5.28

The reported value for `CC(C)(C)c1ccc(C(=O)Nc2ccc3sc(CCC(=O)O)cc3c2)cc1` in terms of IC50 is 19.8

Field IC50 (entry `CCOC(=O)c1cc2cc(NS(=O)(=O)c3ccc(C(C)(C)C)cc3)ccc2[nH]1` ) reads 31.8

What the record says about `CC(C)(C)c1ccc(S(=O)(=O)Nc2ccc3[nH]c(C(=O)NO)cc3c2)cc1` : IC50 is 32

---

- EXPERIMENT DESCRIPTION: Inhibition of HuR-ARE fluorescein-labeled Msi1 mRNA binding (unknown origin) by fluorescence polarization assay
- Design: species or system Homo sapiens
RECORDED METRIC: Ki (nM)
// note: answer is a bare numeric in nM

CC(C)(C)c1ccc(S(=O)(=O)Nc2ccc3sc(/C=C/C(=O)NO)cc3c2)cc1 : 783

Documented Ki of `CC(C)(C)c1ccc(C(=O)Nc2ccc3sc(/C=C/C(=O)NO)cc3c2)cc1` : 139

---

- Tested on: MDA-MB-231
- EXPERIMENT DESCRIPTION: Cytotoxicity against human MDA-MB-231 cells assessed as inhibition of cell growth by MTT assay
- Type: functional, cell-based
Listing: pIC50 of selected molecules
Conceptually, pIC50 converts a concentration in mol/L into minus its log10.

CC(C)(C)c1ccc(C(=O)Nc2ccc3sc(C(=O)O)cc3c2)cc1 : 4.04
CN(C)c1ccc(C(=O)Nc2ccc3[nH]c(C(=O)O)cc3c2)cc1 : 4.00
O=C(Nc1ccc2[nH]c(C(=O)NO)cc2c1)c1ccccn1 : 4.12
CN(C)c1ccc(C(=O)Nc2ccc3[nH]c(C(=O)NO)cc3c2)cc1 : 4.95
CC(C)(C)c1ccc(C(=O)Nc2ccc3sc(CCC(=O)NO)cc3c2)cc1 : 5.46

Could you now look at the following molecule, please?
The molecule `CCOC(=O)CCc1cc2cc(NC(=O)c3ccc(C(C)(C)C)cc3)ccc2s1` , when measured on MDA-MB-231, yielded pIC50 of 5.19

---

// reported pIC50 for each item listed
- Test system: MDA-MB-231
- EXPERIMENT DESCRIPTION: Cytotoxicity against human MDA-MB-231 cells assessed as inhibition of cell growth by MTT assay
- Format: functional, cell-based
pIC50: −log10 of the molar value.

// pIC50 lookup, molecule = `CC(C)(C)c1ccc(S(=O)(=O)Nc2ccc3sc(C(=O)O)cc3c2)cc1` , result: < 4.00

In plain terms, `COC(=O)c1cc2cc(NC(=O)c3ccccn3)ccc2s1` has a documented pIC50 of < 4.00

Reported pIC50 of `O=C(Nc1ccc2[nH]c(C(=O)O)cc2c1)c1ccccn1` : < 4.00

---

- System: MDA-MB-231
- EXPERIMENT DESCRIPTION: Cytotoxicity against human MDA-MB-231 cells assessed as inhibition of cell growth by MTT assay
- Type: functional, cell-based
pIC50: −log10 of the molar value.
pIC50 vs 5: at or above is MET, below is NOT MET.

O=C(Nc1ccc2sc(C(=O)O)cc2c1)c1ccccn1 : NOT MET
CCOC(=O)c1cc2cc(NC(=O)c3ccccn3)ccc2[nH]1 : NOT MET
CN(C)c1ccc(C(=O)Nc2ccc3sc(C(=O)NO)cc3c2)cc1 : MET
CCOC(=O)/C=C/c1cc2cc(NC(=O)c3ccc(N(C)C)cc3)ccc2[nH]1 : NOT MET
CCOC(=O)c1cc2cc(NC(=O)c3ccc(N(C)C)cc3)ccc2[nH]1 : NOT MET
CC(C)(C)c1ccc(C(=O)Nc2ccc3sc(C(=O)NO)cc3c2)cc1 : MET
CC(C)(C)c1ccc(C(=O)Nc2ccc3[nH]c(C(=O)NO)cc3c2)cc1 : MET
O=C(Nc1ccc2sc(C(=O)NO)cc2c1)c1ccccn1 : MET

Confirm if pIC50 reported for the molecule `CC(C)(C)c1ccc(C(=O)Nc2ccc3sc(/C=C/C(=O)O)cc3c2)cc1` is 5 or above.
NOT MET

Reported pIC50 reaches at least 5 for `CCOC(=O)c1cc2cc(NC(=O)c3ccc(C(C)(C)C)cc3)ccc2[nH]1` ?
NOT MET

API: above_or_equal(metric=pIC50, cutoff=5) for item `CC(C)(C)c1ccc(C(=O)Nc2ccc3[nH]c(/C=C/C(=O)NO)cc3c2)cc1`
MET

Entry `CCOC(=O)/C=C/c1cc2cc(NC(=O)c3ccc(C(C)(C)C)cc3)ccc2s1` : is its pIC50 no less than 5?
NOT MET

Quick check, pIC50 >= 5? `CC(C)(C)c1ccc(C(=O)Nc2ccc3sc(/C=C/C(=O)NO)cc3c2)cc1`
MET

Tell me whether pIC50 is at least 5 here: `CC(C)(C)c1ccc(C(=O)Nc2ccc3[nH]c(/C=C/C(=O)O)cc3c2)cc1`
NOT MET

Determine whether measured pIC50 meets or exceeds 5 for `CN(C)c1ccc(C(=O)Nc2ccc3[nH]c(/C=C/C(=O)O)cc3c2)cc1`
NOT MET

---

- Tested on: MDA-MB-231
- EXPERIMENT DESCRIPTION: Cytotoxicity against human MDA-MB-231 cells assessed as inhibition of cell growth by MTT assay
- Assay type: functional, cell-based
pIC50: −log10 of the molar value.
Measured pIC50 by item

COC(=O)c1cc2cc(NC(=O)c3ccc(N(C)C)cc3)ccc2s1 : < 4.00
CC(C)(C)c1ccc(C(=O)Nc2ccc3[nH]c(C(=O)O)cc3c2)cc1 : < 4.00
CC(C)(C)c1ccc(S(=O)(=O)Nc2ccc3[nH]c(C(=O)O)cc3c2)cc1 : < 4.00

Attention now shifts to the item below.
MDA-MB-231 data for `CN(C)c1ccc(C(=O)Nc2ccc3sc(C(=O)O)cc3c2)cc1` ; its pIC50: < 4.00

All values here come from ChEMBL document CHEMBL5380779.
